Test: TEAD-YAP interaction inhibition, primary screen, TEAD-YAP interaction inhibitor project, luminescence, HEK-TIYL cells (AID 1259422);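 further: 0% = median of test compound wells and 100% = reference inhibitor wells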
Conditions: TEAD-Gal4/YAP UAS-luciferase luminescence, at 9.12 µM, stronger effect = higher value
Hit rate of the full screen: of about 640,000 compounds, about 9,300 (1.5%) were called active. The sample as a whole holds a higher share of actives than the screen did.
I'd appreciate it if you could supply inhibition values for the items below.
Answer with a number only, understood to be in %.

INPUT: Reported inhibition, molecule CN1CCN(S(=O)(=O)c2ccc(Sc3ccc(Br)cc3)c(C(=O)O)c2)CC1 : ____
OUTPUT: -2.07

INPUT: Next entry: CCOC(=O)c1ccccc1Nc1nc(-c2ccc(OC)cc2)no1
OUTPUT: 8.95

INPUT: Next entry: O=C(CCCN1CCc2ccccc2C(O)(c2ccccc2)C1)c1ccc(F)cc1 (configuration not stated)
OUTPUT: -4.26

INPUT: Next entry: O=C(Nc1ccc(Cl)c(S(=O)(=O)c2ccc(Cl)cc2)c1)c1cc(Br)cc(Br)c1O
OUTPUT: -6.46

INPUT: Next entry: COc1ccc(OC)c(NC(=O)CSc2nc3cc(OC)ccc3cc2C#N)c1
OUTPUT: 6.71

INPUT: Next entry: CC(C)(C)c1ccc(C(=O)Nc2ccc(N3CCOCC3)c(Cl)c2)cc1
OUTPUT: 0.56

INPUT: Next entry: Cc1ccc(NC(=O)c2ccc(C#N)cc2)c(C(=O)c2ccccc2)c1
OUTPUT: 4.87

INPUT: Next entry: CCN1/C(=C/c2ccc3cc(C)ccc3[n+]2CC)Sc2ccc(OC)cc21
OUTPUT: 83.3

INPUT: Next entry: Cc1cccc(NC(c2cccc(F)c2)c2ccc3ccc(C)nc3c2O)n1 (configuration not stated)
OUTPUT: 1.53

INPUT: Next entry: Cc1cc(C(=O)COC(=O)C(CC(C)C)NC(N)=O)c(C)n1Cc1cccs1 (configuration not stated)
OUTPUT: 66.1

INPUT: Next entry: CN1CCN(c2ccc(NC(=O)c3cc(Br)cc(Br)c3O)cc2Cl)CC1
OUTPUT: 68

INPUT: Next entry: O=C(Nc1cccc(NC(=O)c2cccc(Cl)c2Cl)c1)c1ccco1
OUTPUT: -0.83

INPUT: Next entry: O=C(Nc1ccc2[nH]ncc2c1)c1ccnc(OC2CCN(Cc3ccccc3)CC2)c1
OUTPUT: 82

INPUT: Next entry: COc1ccc2c(c1OC)C(=O)N(c1ccc(O)cc1)C2
OUTPUT: 67.1

INPUT: Next entry: Cc1cc(C(=O)COC(=O)c2ccc([N+](=O)[O-])o2)c(C)n1Cc1cccs1
OUTPUT: 0.16

INPUT: Next entry: Cc1cc(NC(=O)CSc2nc3cc4c(cc3cc2C#N)OCCO4)no1
OUTPUT: 2.38

INPUT: Next entry: Cc1cccc(C(=O)OCC(=O)NC2CCCCC2C)c1O (configuration not stated)
OUTPUT: 7.9

INPUT: Next entry: COC(=O)c1ccccc1Nc1c(-c2ccc(C)c(C)c2)c(=O)c1=O
OUTPUT: 5.02

INPUT: Next entry: Cc1ccccc1-n1c(SCC#N)nc2c(sc(=S)n2-c2ccccc2C)c1=O
OUTPUT: -17.8

INPUT: Next entry: CCC(/C=C1\Sc2ccc(-c3ccccc3)cc2N1CC)=C\c1sc2ccc3ccccc3c2[n+]1CC
OUTPUT: 21.8

INPUT: Next entry: COc1ccc2c(c1OC)C(=O)N(c1ncn[nH]1)C2
OUTPUT: 3.4

INPUT: Next entry: Cc1cc(C(=O)COC(=O)CCC(=O)c2cccs2)c(C)n1Cc1ccco1
OUTPUT: -6.67

INPUT: Next entry: S=C(Nc1nc2ccccc2[nH]1)Nc1nc2ccccc2[nH]1
OUTPUT: -3.78

INPUT: Next entry: Cc1cc(N2CCOCC2)nc(SCC(=O)N2CCCC2)n1
OUTPUT: 5.97

INPUT: Next entry: Cc1nc(NC(=O)c2ccc(C(C)(C)C)cc2)sc1C(=O)N1CCOCC1
OUTPUT: 13.1

INPUT: Next entry: Cc1cc(N2CCCCC2)nc(NCCNC(=O)C2CCCO2)n1 (configuration not stated)
OUTPUT: 42.3

INPUT: Next entry: CSCCC(=O)Nc1nc2ccccc2[nH]1
OUTPUT: -12.9

INPUT: Next entry: COc1cc(Nc2ccnc(Nc3ccc(N4CCOCC4)cc3)n2)cc(OC)c1OC
OUTPUT: 72.7

INPUT: Next entry: CCOc1ccc2cc(C#N)c(SCC(=O)NCc3ccc(OC)cc3)nc2c1
OUTPUT: 3.49

INPUT: Next entry: COc1ccc2cc(C#N)c(SC)nc2c1
OUTPUT: 33.8

INPUT: Next entry: Cc1ccnc(NC(c2ccc(O)cc2)c2ccc3ccc(C)nc3c2O)c1 (configuration not stated)
OUTPUT: -16.1

INPUT: Next entry: Cn1c(-c2ccco2)nc2cc3ccccc3cc21
OUTPUT: 90.5

INPUT: Next entry: Cc1noc(C)c1NC(=O)N1CCC2(CC1)OCc1ccccc1O2
OUTPUT: -5.79

INPUT: Next entry: Oc1ccc2ncccc2c1C(Nc1ccccn1)c1ccccc1 (configuration not stated)
OUTPUT: 6.96

INPUT: Next entry: Cc1ccc(N2C(=O)Cc3c2nc(N)c2c(N)nc(N4CCCCC4)c(C#N)c32)cc1C
OUTPUT: 18.1

INPUT: Next entry: CCNC(=O)C1CCN(c2nc(C)cc(C)n2)CC1
OUTPUT: -5.09

INPUT: Next entry: Cc1ccc(C)c(C(=O)Nc2ccc3c(c2)N(S(=O)(=O)c2ccc(F)cc2)CCC3)c1
OUTPUT: -2.68
